Tested on: P388 lymphocytic leukemia
methodDescription: Growth inhibition of tumor cells of P388 lymphocytic leukemia in vitro
Format: cell-based, mouse (CDF1)
recordedConditions: Mus musculus, 48 hours at 37° C., read-out: 50% Inhibitory concentration of cell growth (IC50)
Procedure: (I) Growth Inhibition of Tumor Cells of P388 Lymphocytic Leukemia in Vitro: […] A test tube with Molton stopper loosely involving 0.5 ml each of the cell suspension and the sample suspension was kept for 48 hours at 37° C. in an incubator supplied with air containing 5% carbon dioxide. […] The cells harvested therefrom was counted by using of a Coulter Counter and the inhibition of cell growth was calculated by the following formula: […]
Each entry below lists one item and its recorded pIC50 value.
Quick note: pIC50 means taking -log10 of the concentration in moles per liter.

Known pIC50 results, listed for orientation:
molecule | measuredAttribute | endpointValue
CC(C)COC(=O)OCN1C(=O)CN(CCN2CC(=O)N(COC(=O)OCC(C)C)C(=O)C2)CC1=O [Sample A, reference compound] | pIC50 | 4.80
CC(=O)OCN1C(=O)CN([C@@H](C)[C@@H](C)N2CC(=O)NC(=O)C2)CC1=O (relative stereo) [Sample 9] | pIC50 | 7.13
CC(C(C)N1CC(=O)N(COC(=O)C=Cc2cccc(Cl)c2)C(=O)C1)N1CC(=O)NC(=O)C1 (centres unmarked) [Sample 12] | pIC50 | 7.96
Cc1cccc(C(=O)OCN2C(=O)CN([C@@H](C)[C@@H](C)N3CC(=O)NC(=O)C3)CC2=O)c1 (relative stereo) [Sample 14] | pIC50 | 7.89
CC(C)COC(=O)OCN1C(=O)CN([C@H](C)[C@H](C)N2CC(=O)N(COC(=O)OCC(C)C)C(=O)C2)CC1=O [Sample 7] | pIC50 | 7.08

# get_value(readout='pIC50', item= C[C@H]([C@H](C)N1CC(=O)N(COC(=O)c2ccccc2)C(=O)C1)N1CC(=O)NC(=O)C1 (relative stereo) [Sample 13] )
7.42

Could you share which pIC50 value was measured for C[C@H]([C@H](C)N1CC(=O)N(COC(=O)COc2ccc(Cl)cc2Cl)C(=O)C1)N1CC(=O)NC(=O)C1 (relative stereo) [Sample 11] ?
7.11

# get_value(readout='pIC50', item= C[C@H]([C@H](C)N1CC(=O)N(COC(=O)[C@H](N)c2ccccc2)C(=O)C1)N1CC(=O)N(COC(=O)[C@H](N)c2ccccc2)C(=O)C1 [Sample 6] )
7.28
